zone of inhibition at 1000 µg/mL values for the compounds below.
Tested on: Candida albicans
Assay: Antifungal activity against Candida albicans RCMB 005036 assessed as diameter of inhibition zone at 1 mg/mL after 24 to 48 hrs by agar well diffusion method
Type: functional
Conditions: read-out: DIZ
// units = mm; emit number, no label

- line-notation: "COc1cc(NS(=O)(=O)c2ccc(NC(=S)Nc3c(C)n(C)n(-c4ccccc4)c3=O)cc2)nc(OC)n1"
  measurement-target: "Candida albicans"
  experimental-value: 12.6

Exercise: Would you mind telling me what zone of inhibition at 1000 µg/mL value was observed for C[C@@H]1[C@H](O)[C@@H](C)/C=C/C=C/C=C/C=C/C=C/C=C/C=C/[C@H](O[C@@H]2O[C@H](C)[C@@H](O)[C@H](N)[C@@H]2O)C[C@@H]2O[C@](O)(C[C@@H](O)C[C@@H](O)[C@H](O)CC[C@@H](O)C[C@@H](O)CC(=O)O[C@H]1C)C[C@H](O)[C@H]2C(=O)O ?
Key: 25.4

Exercise: So what does the record say about zone of inhibition at 1000 µg/mL for COc1cc(NS(=O)(=O)c2ccc(NC(=S)Nc3nc4ccc([N+](=O)[O-])cc4s3)cc2)nc(OC)n1 ?
Key: 10.8

Data origin: ChEMBL document CHEMBL3875150
